Measured target: T1, recombinant human MASP1 active protease (amino acids 297-699, C-terminal His Tag) (human, UniProt P48740 297-699)
T1 sequence: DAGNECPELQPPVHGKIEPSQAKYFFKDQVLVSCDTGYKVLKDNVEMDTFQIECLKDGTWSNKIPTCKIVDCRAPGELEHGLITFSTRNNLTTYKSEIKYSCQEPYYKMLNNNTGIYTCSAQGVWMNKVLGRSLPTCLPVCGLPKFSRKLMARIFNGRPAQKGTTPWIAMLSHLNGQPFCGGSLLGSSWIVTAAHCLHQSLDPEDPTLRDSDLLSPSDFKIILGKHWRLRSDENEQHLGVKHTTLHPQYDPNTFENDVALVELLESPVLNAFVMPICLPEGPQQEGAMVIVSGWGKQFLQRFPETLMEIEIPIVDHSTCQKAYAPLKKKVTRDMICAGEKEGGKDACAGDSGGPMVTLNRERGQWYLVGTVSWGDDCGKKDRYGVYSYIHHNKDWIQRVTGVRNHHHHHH
Method notes: cell-based or functional assay
Bridge positions count the residues as written; N and C are the ends. Square brackets hold non-standard residues; d marks the D form. Ends that are not written are not given here. Oic = O=C(O)[C@@H]1C[C@@H]2CCCC[C@@H]2N1; tBuAla = CC(C)(C)C[C@H](N)C(=O)O; Pen = CC(C)(S)[C@H](N)C(=O)O; GABA = NCCCC(=O)O
Each entry below carries its recorded human MASP1 IC50.
Lab book: enter the figure in nM, no units written.

Quick check: human MASP1 IC50 of [GABA]ICSRS[tBuAla]PPI[Pen]IPD-NH2 (disulfide 3-11; N-terminus assumed; SMILES CC[C@H](C)[C@H](NC(=O)CCCN)C(=O)N[C@H]1CSSC(C)(C)[C@@H](C(=O)N[C@H](C(=O)N2CCC[C@H]2C(=O)N[C@@H](CC(=O)O)C(N)=O)[C@@H](C)CC)NC(=O)[C@H]([C@@H](C)CC)NC(=O)[C@@H]2CCCN2C(=O)[C@@H]2CCCN2C(=O)[C@H](CC(C)(C)C)NC(=O)[C@H](CO)NC(=O)[C@H](CCCNC(=N)N)NC(=O)[C@H](CO)NC1=O) [(Gamma-Abu)-IC+SRS-((tBu)A)-PPI-(Pen)+IPD-NH2] ?
3

Please turn your attention to the following entry.
Quick check: human MASP1 IC50 of AICSRSLP[Oic]I[Pen]IPE-OH (disulfide 3-11; N-terminus assumed; SMILES CC[C@H](C)[C@H](NC(=O)[C@H](C)N)C(=O)N[C@H]1CSSC(C)(C)[C@@H](C(=O)N[C@H](C(=O)N2CCC[C@H]2C(=O)N[C@@H](CCC(=O)O)C(=O)O)[C@@H](C)CC)NC(=O)[C@H]([C@@H](C)CC)NC(=O)[C@@H]2C[C@@H]3CCCC[C@@H]3N2C(=O)[C@@H]2CCCN2C(=O)[C@H](CC(C)C)NC(=O)[C@H](CO)NC(=O)[C@H](CCCNC(=N)N)NC(=O)[C@H](CO)NC1=O) [AIC+SRSLP-(Oic)-I-(Pen)+IPE-OH] ?
2.9
